Values compiled from patent US9295673B2.

// reported IC50 per item
Molecular target: PI3K δ (Homo sapiens)
Sequence (O00329 whole entry): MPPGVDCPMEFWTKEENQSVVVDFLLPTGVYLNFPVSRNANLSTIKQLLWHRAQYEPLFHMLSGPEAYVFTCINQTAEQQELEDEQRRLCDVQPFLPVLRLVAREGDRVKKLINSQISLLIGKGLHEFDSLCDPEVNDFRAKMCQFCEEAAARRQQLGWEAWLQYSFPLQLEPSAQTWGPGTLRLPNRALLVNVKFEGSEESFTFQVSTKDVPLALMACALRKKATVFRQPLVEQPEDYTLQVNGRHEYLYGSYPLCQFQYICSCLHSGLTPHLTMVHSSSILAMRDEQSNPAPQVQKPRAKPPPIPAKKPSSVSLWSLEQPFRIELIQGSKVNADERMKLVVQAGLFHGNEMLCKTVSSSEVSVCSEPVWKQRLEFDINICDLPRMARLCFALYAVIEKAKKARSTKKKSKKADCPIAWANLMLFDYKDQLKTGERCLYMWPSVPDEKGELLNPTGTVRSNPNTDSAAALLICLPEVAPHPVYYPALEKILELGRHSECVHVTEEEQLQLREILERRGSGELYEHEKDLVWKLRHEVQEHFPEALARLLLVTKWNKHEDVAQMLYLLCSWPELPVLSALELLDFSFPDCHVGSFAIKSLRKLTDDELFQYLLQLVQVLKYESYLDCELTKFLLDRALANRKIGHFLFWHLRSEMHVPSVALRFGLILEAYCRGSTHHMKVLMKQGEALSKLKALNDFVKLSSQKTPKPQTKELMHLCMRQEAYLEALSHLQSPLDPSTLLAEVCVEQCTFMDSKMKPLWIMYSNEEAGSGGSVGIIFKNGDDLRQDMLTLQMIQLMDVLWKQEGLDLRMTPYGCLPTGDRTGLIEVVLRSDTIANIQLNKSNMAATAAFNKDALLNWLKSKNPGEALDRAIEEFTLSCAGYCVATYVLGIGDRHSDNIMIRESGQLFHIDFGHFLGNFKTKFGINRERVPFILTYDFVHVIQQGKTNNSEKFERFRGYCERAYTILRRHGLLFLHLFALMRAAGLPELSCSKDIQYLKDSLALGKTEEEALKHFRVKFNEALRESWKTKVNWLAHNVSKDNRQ
Sequence (P27986 whole entry partner): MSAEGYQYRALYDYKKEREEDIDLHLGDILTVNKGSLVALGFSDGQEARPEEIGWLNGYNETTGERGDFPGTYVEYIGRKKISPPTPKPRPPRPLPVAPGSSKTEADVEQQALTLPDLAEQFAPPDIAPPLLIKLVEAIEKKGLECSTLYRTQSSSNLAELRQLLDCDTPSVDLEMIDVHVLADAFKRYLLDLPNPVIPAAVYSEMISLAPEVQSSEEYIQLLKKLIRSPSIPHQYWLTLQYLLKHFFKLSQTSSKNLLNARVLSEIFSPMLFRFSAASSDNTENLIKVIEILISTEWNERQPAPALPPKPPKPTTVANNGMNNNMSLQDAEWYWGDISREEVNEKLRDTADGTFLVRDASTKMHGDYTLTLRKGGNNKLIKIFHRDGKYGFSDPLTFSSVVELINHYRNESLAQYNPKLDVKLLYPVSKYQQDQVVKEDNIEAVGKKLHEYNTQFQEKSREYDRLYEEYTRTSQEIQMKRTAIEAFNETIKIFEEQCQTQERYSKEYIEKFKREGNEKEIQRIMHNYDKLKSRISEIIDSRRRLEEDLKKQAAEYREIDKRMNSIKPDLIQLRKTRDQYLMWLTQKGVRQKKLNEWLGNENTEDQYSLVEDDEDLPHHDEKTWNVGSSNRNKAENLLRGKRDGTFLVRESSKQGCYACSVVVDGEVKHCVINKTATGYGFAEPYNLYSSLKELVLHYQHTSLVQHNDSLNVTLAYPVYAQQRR
Assay: PI 3-Kinase (human) HTRF assay, PI3K δ
Details: read-out: PI3K δ IC50
REPORTED_ENDPOINT: IC50

[[record]]
compound = "CC(=O)Nc1nc2ccc(-c3ccc4oc(N)nc4c3)cc2s1"
recorded_result = "< 100 nM"

[[record]]
compound = "C[C@@H]1CN(c2cnc3ccc(-c4ccc5oc(N)nc5c4)nc3c2)CCN1"
recorded_result = "< 10000 nM"

[[record]]
compound = "CC(C)[C@H](N)C(=O)N1CCN(c2cnc3ccc(-c4ccc5oc(N)nc5c4)cc3n2)CC1"
recorded_result = "< 1000 nM"

[[record]]
compound = "Nc1nc2cc(-c3ccc4ncc(NC5CCC(O)CC5)nc4c3)ccc2o1 (stereo not shown)"
recorded_result = "< 100 nM"

[[record]]
compound = "Nc1ncnc2c1c(-c1cc3cc(O)cc(Cl)c3[nH]1)nn2C1CCOCC1"
recorded_result = "10 to 25 nM"

[[record]]
compound = "CC(=O)N1CCC(n2nc(-c3cc4ccc(O)cc4[nH]3)c3c(N)ncnc32)CC1"
recorded_result = "10 to 25 nM"

[[record]]
compound = "CC(C)(N)C(=O)N1CCN(c2cnc3ccc(-c4ccc5oc(N)nc5c4)nc3n2)CC1"
recorded_result = "< 10000 nM"

[[record]]
compound = "Nc1ncnc2c1c(-c1cc3cc(O)ccc3[nH]1)nn2C1CCOCC1"
recorded_result = "50 to 100 nM"

[[record]]
compound = "COc1cccc2cc(-c3nn(C4CCOCC4)c4ncnc(N)c34)[nH]c12"
recorded_result = "10 to 25 nM"

[[record]]
compound = "CC(=O)N1CCC(n2nc(-c3cc4c(Cl)ccc(O)c4[nH]3)c3c(N)ncnc32)CC1"
recorded_result = "100 to 500 nM"

[[record]]
compound = "CC(C)N1CCC(n2nc(-c3cc4c(Cl)ccc(O)c4[nH]3)c3c(N)ncnc32)CC1"
recorded_result = "> 500 nM"

[[record]]
compound = "Cc1nccn1CCn1nc(-c2cc3cc(O)ccc3[nH]2)c2c(N)ncnc21"
recorded_result = "> 500 nM"

[[record]]
compound = "Cc1ccc(NC(=O)c2cnc3ccc(-c4ccc5oc(N)nc5c4)cn23)cn1"
recorded_result = "< 10000 nM"

[[record]]
compound = "Nc1nc2cc(-c3ccc4ncc(N5C6CCC5COC6)nc4n3)ccc2o1"
recorded_result = "> 10000 nM"

[[record]]
compound = "CN1CCN(c2cnc3ccc(-c4ccc5oc(N)nc5c4)nc3n2)CC1"
recorded_result = "< 10000 nM"

[[record]]
compound = "Nc1nc2cc(-c3cnc4ccc(N5C6CCC5COC6)nc4c3)ccc2o1"
recorded_result = "> 10000 nM"

